Listing of entries alongside the reported abundance fitness.
B1: Chromodomain-helicase-DNA-binding protein 5, residues 338 to 390; numbered along this chain, Q8TDI0 (parent)
chain: YETDHQDYCEVCQQGGEIILCDTCPRAYHLVCLDPELEKAPEGKWSCPHCEKE

Variants of: B1
Measurement notes: abundance fitness (aPCA) (normalised: wild type 0, dead -1); higher = more abundant; growth selection in yeast, the domain comes from the species named
Conditions used: Homo sapiens
When you answer, write just the number.

Incoming: Let me know recorded abundance fitness for E36C , thanks.
Outgoing: -0.067

Incoming: Hello, please tell me recorded abundance fitness for this one: E51T
Outgoing: 0.088

Incoming: Given K44R , respond with its abundance fitness.
Outgoing: 0.14
